The reported numbers originate from paper PMC10873626.

# PROTOCOL CONDITIONS: microsomes
Assign CLint, Human to each entry below.
Numbers only, in mL/min/g liver.

Example cases with answers are listed next.
COMPOUND STRUCTURE STRING	CLint, Human (mL/min/g liver)
Cc1cc(C#N)cc(C)c1Oc1nc(Nc2ccc(C#N)cc2)nc(N)c1Br	1
C[C@]1(COc2ccc(N3CCC(Oc4ccc(OC(F)(F)F)cc4)CC3)cc2)Cn2cc([N+](=O)[O-])nc2O1	0.8
CC(C)c1nc(CN(C)C(=O)N[C@H](C(=O)N[C@@H](Cc2ccccc2)C[C@H](O)[C@H](Cc2ccccc2)NC(=O)OCc2cncs2)C(C)C)cs1	6.6
CC[C@@H]([C@H](C)O)n1ncn(-c2ccc(N3CCN(c4ccc(OC[C@@H]5CO[C@@](Cn6cncn6)(c6ccc(F)cc6F)C5)cc4)CC3)cc2)c1=O	0.5

For each listed entry, give its CLint, Human.
1. [H]/N=C(\N/C(=N/[H])Nc1ccc(Cl)cc1)NC(C)C
2. CO[C@H]1/C=C/O[C@@]2(C)Oc3c(C)c(O)c4c(O)c(c(/C=N/N5CCN(C)CC5)c(O)c4c3C2=O)NC(=O)/C(C)=C\C=C\[C@H](C)[C@H](O)[C@@H](C)[C@@H](O)[C@@H](C)[C@H](OC(C)=O)[C@@H]1C

**Result**
[0.3, 0.8]

----------
Assignment: determine reported CLint, Human for the given compounds.
# PROTOCOL CONDITIONS: microsomes
Give bare numbers, in mL/min/g liver.

Observe how each entry below is paired with its result.
COMPOUND	METRIC	NUMERIC RESULT
CCCCN(CCCC)CCC(O)c1cc2c(Cl)cc(Cl)cc2c2cc(C(F)(F)F)ccc12 (centres unmarked) [Halofantrine]	CLint, Human	1.7
OC(c1cc(C(F)(F)F)nc2c(C(F)(F)F)cccc12)C1CCCCN1 (centres unmarked) [Mefloquine]	CLint, Human	0.5
O=[N+]([O-])c1cn2c(n1)OC[C@@H](OCc1ccc(OC(F)(F)F)cc1)C2 [Pretomanid]	CLint, Human	0.5
O=C1Nc2ccc(Cl)cc2[C@@](C#CC2CC2)(C(F)(F)F)O1 [Efavirenz]	CLint, Human	0.5

Okay, next one:
CLint, Human for CC[C@H]1OC(=O)[C@H](C)[C@@H](O[C@H]2C[C@@](C)(OC)[C@@H](O)[C@H](C)O2)[C@H](C)[C@@H](O[C@@H]2O[C@H](C)C[C@H](N(C)C)[C@H]2O)[C@](C)(OC)C[C@@H](C)C(=O)[C@H](C)[C@@H](O)[C@]1(C)O [Clarithromycin] is 1.4

----------
Field: CLint, CypC4KO. Provide a value for each of the compounds that follow.
# PROTOCOL CONDITIONS: mouse, microsomes
Answers are plain numbers, in mL/min/g liver.

Would you please look over these solved cases?
COMPOUND	CLint, CypC4KO (mL/min/g liver)
CO[C@H]1/C=C/O[C@@]2(C)Oc3c(C)c(O)c4c(c3C2=O)C2=NC3(CCN(CC(C)C)CC3)NC2=C(NC(=O)/C(C)=C\C=C\[C@H](C)[C@H](O)[C@@H](C)[C@@H](O)[C@@H](C)[C@H](OC(C)=O)[C@@H]1C)C4=O	0.5
OC(c1cc(C(F)(F)F)nc2c(C(F)(F)F)cccc12)C1CCCCN1 (stereo not shown)	0.5
CC(=O)NC[C@H]1CN(c2ccc(N3CCOCC3)c(F)c2)C(=O)O1	0.5

Entry CO[C@H]1C[C@H](O[C@H]2[C@H](C)[C@@H](O[C@@H]3O[C@H](C)C[C@H](N(C)C)[C@H]3O)[C@@H](C)C[C@@]3(CO3)C(=O)[C@H](C)[C@@H](O)[C@@H](C)[C@@H](C)OC(=O)[C@@H]2C)O[C@@H](C)[C@@H]1O ; CLint, CypC4KO = 50
